Data origin: patent US20160297884A1

- Assayed Target: T1, cynomolgus monkey BCMA (cynomolgus monkey, UniProt A0A2K5UD97 1-53)
- T1 construct: Soluble analyte in SPR; construct not described; also called cyBCMA; Cyno BCMA
- T1 sequence (A0A2K5UD97 entry or part of it): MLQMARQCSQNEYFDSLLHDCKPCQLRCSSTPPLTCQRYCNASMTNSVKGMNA
- Assay Remarks: SPR, IgG immobilised, 37 C
Metric: koff (s⁻¹)
# value in s⁻¹; strip the unit string

Some binders with known koff results, for comparison:
# Binder, koff / s⁻¹
measured = [
    ("L3.PY/L1.AH/H2.YQ (antibody, V domains shown, IgG) VH: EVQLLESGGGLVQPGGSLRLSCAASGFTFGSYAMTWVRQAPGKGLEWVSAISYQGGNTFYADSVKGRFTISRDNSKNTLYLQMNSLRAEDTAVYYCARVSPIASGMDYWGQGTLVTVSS VL: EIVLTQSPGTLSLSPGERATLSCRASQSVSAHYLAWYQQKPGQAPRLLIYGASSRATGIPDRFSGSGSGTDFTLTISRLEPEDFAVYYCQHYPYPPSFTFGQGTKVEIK", 0.00431),
    ("L3.PY/H2.YQ (antibody, V domains shown, IgG) VH: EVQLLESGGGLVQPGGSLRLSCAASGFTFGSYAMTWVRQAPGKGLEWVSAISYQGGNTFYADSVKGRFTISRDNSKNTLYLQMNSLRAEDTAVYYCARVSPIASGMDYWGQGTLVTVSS VL: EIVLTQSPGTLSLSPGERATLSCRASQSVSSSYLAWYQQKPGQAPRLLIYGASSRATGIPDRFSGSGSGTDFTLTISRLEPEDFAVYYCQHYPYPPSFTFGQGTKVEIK", 0.00621),
]

# input Fill in reported koff for this entry: L3.PY/L1.PS/H2.DY (antibody, V domains shown, IgG) VH: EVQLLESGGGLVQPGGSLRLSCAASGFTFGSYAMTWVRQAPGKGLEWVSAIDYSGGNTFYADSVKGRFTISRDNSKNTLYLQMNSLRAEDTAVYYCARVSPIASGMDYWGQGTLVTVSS VL: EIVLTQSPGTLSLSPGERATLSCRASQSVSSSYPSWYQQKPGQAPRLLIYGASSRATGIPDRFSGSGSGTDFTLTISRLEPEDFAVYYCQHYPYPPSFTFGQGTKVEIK
# output 0.00378
